- Test Target: Recombinant human mPGES-1 (Homo sapiens, UniProt O14684)
- Construct: made in house; host or cells: CHO cells
- Test: In-vitro mPGES-1 inhibitor screening (inhibition of PGE2 formation from PGH2, HTRF detection)
- Type: biochemical
- Condition Context: 1 μM test compound; crude microsomal fraction, 15 μM PGH2; read-out: Percentage inhibition at 1 μM
Property Label: inhibition at 1 µM (%)

Chem Smiles: CC(C)(C)C(=O)NCc1ccc(Cl)c(C(=O)Nc2cccc3c(O[C@H]4CC[C@@H](C(F)(F)F)CC4)ncnc23)c1F
Test Target: Recombinant human mPGES-1 (Homo sapiens, UniProt O14684)
inhibition at 1 µM / %: 93.4
//
Chem Smiles: CC(C)(C)C(=O)NCc1ccc(Cl)c(C(=O)Nc2cccc3c(O[C@H]4CC[C@H](C(F)(F)F)CC4)nccc23)c1
Test Target: Recombinant human mPGES-1 (Homo sapiens, UniProt O14684)
inhibition at 1 µM / %: 99.3
//
Chem Smiles: CC(C)(C)C(=O)NCc1ccc(Cl)c(C(=O)Nc2cccc3c(Oc4cc(C(F)(F)F)ccc4F)ccnc23)c1F
Test Target: Recombinant human mPGES-1 (Homo sapiens, UniProt O14684)
inhibition at 1 µM / %: 99.3
//
Chem Smiles: CC(C)(C)Nc1ncnc2c(NC(=O)c3c(Cl)ccc(CNC(=O)C(C)(C)CO)c3F)cccc12
Test Target: Recombinant human mPGES-1 (Homo sapiens, UniProt O14684)
inhibition at 1 µM / %: 84.9

###

- Test Target: Recombinant human mPGES-1 (Homo sapiens)
- Construct: made in house; host or cells: CHO cells
- Test: In-vitro mPGES-1 inhibitor screening (inhibition of PGE2 formation from PGH2, HTRF detection)
- Assay type: biochemical
- Condition Context: 10 μM test compound; crude microsomal fraction, 15 μM PGH2; read-out: Percentage inhibition at 10 μM
Property Label: inhibition at 10 µM (%)

Chem Smiles: CC(C)C(=O)NCc1cnc(C(F)F)c(C(=O)Nc2cccc3c(Oc4ccc(F)c(C(F)(F)F)c4)ccnc23)c1
inhibition at 10 µM / %: 98.5

Chem Smiles: CC(C)(C)C(=O)NCc1ccc(Cl)c(C(=O)Nc2cccc3c(Oc4cc(C(F)(F)F)ccc4F)ncnc23)c1F
inhibition at 10 µM / %: 100

Chem Smiles: CC(C)(C)C(=O)NCc1ccc(Cl)c(C(=O)Nc2cccc3c(O[C@H]4CC[C@@H](C(F)(F)F)CC4)ncnc23)c1F
inhibition at 10 µM / %: 93.1

Chem Smiles: O=C(Nc1cccc2c(Nc3cccc(C(F)(F)F)c3)ncnc12)c1c(Cl)ccc(CNC(=O)[C@@H]2CCCO2)c1F
inhibition at 10 µM / %: 94.9

Chem Smiles: CC(C)(C)C(=O)NCc1ccc(Cl)c(C(=O)Nc2cccc3c(Nc4cccc(C(F)(F)F)c4)nccc23)n1
inhibition at 10 µM / %: 97.2

Chem Smiles: Cc1ccc(CNC(=O)C(C)(C)C)c(C)c1C(=O)Nc1cccc2c(Nc3cccc(C(F)(F)F)c3)nccc12
inhibition at 10 µM / %: 98.1

Chem Smiles: CC(C)(C)Nc1ncnc2c(NC(=O)c3ccc(F)c(CNC(=O)C(C)(C)C)c3Cl)cccc12
inhibition at 10 µM / %: 98.7

###

- Test Target: Recombinant human mPGES-1 (Homo sapiens, UniProt O14684)
- Construct: made in house; host or cells: CHO cells
- Sequence (O14684 1-152): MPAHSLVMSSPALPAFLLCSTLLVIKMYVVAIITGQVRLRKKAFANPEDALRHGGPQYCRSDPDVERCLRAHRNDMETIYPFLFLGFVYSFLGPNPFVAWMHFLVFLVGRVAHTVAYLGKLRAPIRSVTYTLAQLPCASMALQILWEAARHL
- Test: In-vitro mPGES-1 inhibitor screening (inhibition of PGE2 formation from PGH2, HTRF detection)
- Format: biochemical
- Condition Context: 1 μM test compound; crude microsomal fraction, 15 μM PGH2; read-out: Percentage inhibition at 1 μM
Property Label: inhibition at 1 µM (%)

Chem Smiles: CC(C)(C)C(=O)NCc1ccc(Cl)c(C(=O)Nc2cccc3c(Oc4cccc(C(F)(F)F)c4)ccnc23)n1
Unit Annotation: %
inhibition at 1 µM: 94.3

Chem Smiles: Cc1ccc(CNC(=O)C(C)(C)C)c(C)c1C(=O)Nc1cccc2c(NC(C)(C)C)ncnc12
Unit Annotation: %
inhibition at 1 µM: 99.8

Chem Smiles: CC(C)(C)Nc1ncnc2c(NC(=O)c3ccc(F)c(CNC(=O)C(C)(C)C)c3Cl)cccc12
Unit Annotation: %
inhibition at 1 µM: 86.8

Chem Smiles: CC(C)(C)C(=O)NCc1ccc(Cl)c(C(=O)Nc2cccc3c(Nc4ccc(F)c(C(F)(F)F)c4)ncnc23)c1F
Unit Annotation: %
inhibition at 1 µM: 97.7

Chem Smiles: CC(C)C(=O)NCc1ccc(Cl)c(C(=O)Nc2cccc3c(NC(C)(C)C)ncnc23)c1F
Unit Annotation: %
inhibition at 1 µM: 100

Chem Smiles: CC(C)(C)C(=O)NCc1ccc(Cl)c(C(=O)Nc2cccc3c(Oc4ccc(C(F)(F)F)cc4)ccnc23)c1F
Unit Annotation: %
inhibition at 1 µM: 98.3

Chem Smiles: CCOc1ccnc2c(NC(=O)c3c(Cl)ccc(CNC(=O)C(C)(C)C)c3F)cccc12
Unit Annotation: %
inhibition at 1 µM: 90.8

Cited source: patent US9006257B2
